# Test system: Pseudomonas aeruginosa
# ASSAY_PROCEDURE: Antibacterial activity against IMP-4 producing Pseudomonas aeruginosa isolate 212886 after 18 hrs by CLSI broth microdilution method
# Assay type: functional
# COND: isolate 212886, 18 h
METRIC: MIC

{"columns": ["COMPOUND", "REPORTED_MEASUREMENT"],
 "data": [
  ["CC(C)C(O/N=C(\\C(=O)N[C@@H]1C(=O)N(S(=O)(=O)O)[C@@H]1CSc1nc2ccccc2o1)c1csc(N)n1)c1cc(=O)c(O)cn1O (some centres undefined)", "> 64 µg/mL"],
  ["CC(=O)OC[C@@H]1[C@H](NC(=O)/C(=N\\OC(c2cc(=O)c(O)cn2O)C(C)C)c2csc(N)n2)C(=O)N1S(=O)(=O)O (some centres undefined)", "> 64 µg/mL"],
  ["CC(C)C(O/N=C(\\C(=O)N[C@@H]1C(=O)N(S(=O)(=O)O)[C@@H]1COC(=O)CNC(=O)c1cc(=O)c(O)c[nH]1)c1csc(N)n1)c1cc(=O)c(O)cn1O (some centres undefined)", "> 64 µg/mL"],
  ["CC(C)C(O/N=C(\\C(=O)NC1C(=O)N(S(=O)(=O)O)C1(CF)CF)c1csc(N)n1)c1cc(=O)c(O)cn1O (centres undefined)", "> 64 µg/mL"],
  ["CC(C)C(O/N=C(\\C(=O)N[C@@H]1C(=O)N(S(=O)(=O)O)[C@@H]1COC(=O)C1CN(C(=O)c2ccc(O)c(O)c2Cl)C1)c1csc(N)n1)c1cc(=O)c(O)cn1O (some centres undefined)", "> 64 µg/mL"]
]}

Can you look up the measured MIC of CC(C)C(O/N=C(\C(=O)N[C@@H]1C(=O)N(S(=O)(=O)O)[C@@H]1COC(N)=O)c1csc(N)n1)c1cc(=O)c(O)cn1O (some centres undefined) for me?
4 µg/mL

Can you look up the measured MIC of CC(C)C(O/N=C(\C(=O)N[C@@H]1C(=O)N(S(=O)(=O)O)[C@@H]1CN1CCNC1=O)c1csc(N)n1)c1cc(=O)c(O)cn1O (some centres undefined) for me?
32 µg/mL

Can you look up the measured MIC of CC(C)C(O/N=C(\C(=O)N[C@@H]1C(=O)N(S(=O)(=O)O)[C@@H]1CO)c1csc(N)n1)c1cc(=O)c(O)cn1O (some centres undefined) for me?
> 64 µg/mL

Can you look up the measured MIC of CC(C)C(O/N=C(\C(=O)N[C@@H]1C(=O)N(S(=O)(=O)O)[C@@H]1Cn1cc(COCc2cc(=O)c(O)cn2O)nn1)c1csc(N)n1)c1cc(=O)c(O)cn1O (some centres undefined) for me?
4 µg/mL

Can you look up the measured MIC of Cc1nnc(SC[C@@H]2[C@H](NC(=O)/C(=N\OC(c3cc(=O)c(O)cn3O)C(C)C)c3csc(N)n3)C(=O)N2S(=O)(=O)O)s1 (some centres undefined) for me?
> 64 µg/mL

Can you look up the measured MIC of C#CC1[C@H](NC(=O)/C(=N\OC(c2cc(=O)c(O)cn2O)C(C)C)c2csc(N)n2)C(=O)N1S(=O)(=O)O (some centres undefined) for me?
> 64 µg/mL

Can you look up the measured MIC of CC(C)C(O/N=C(\C(=O)NC1C(=O)N(S(=O)(=O)O)C12CCCC2)c1csc(N)n1)c1cc(=O)c(O)cn1O (centres undefined) for me?
16 µg/mL

Can you look up the measured MIC of CC(C)C(O/N=C(\C(=O)NC1C(=O)N(S(=O)(=O)O)C12CCOCC2)c1csc(N)n1)c1cc(=O)c(O)cn1O (centres undefined) for me?
> 64 µg/mL

Can you look up the measured MIC of CC(C)C(O/N=C(\C(=O)NC1C(=O)N(S(=O)(=O)O)C12CCCCC2)c1csc(N)n1)c1cc(=O)c(O)cn1O (centres undefined) for me?
> 64 µg/mL

###

# Tested on: Pseudomonas aeruginosa
# ASSAY_PROCEDURE: Antibacterial activity against IMP-4 producing Pseudomonas aeruginosa isolate 212886 after 18 hrs by CLSI broth microdilution method
# Format: functional
# COND: isolate 212886, 18 h
METRIC: MIC

Examples with their reported MIC follow.
{"columns": ["COMPOUND", "TARGET_UNDER_TEST", "MIC"],
 "data": [
  ["CC(C)C(O/N=C(\\C(=O)NC1C(=O)N(S(=O)(=O)O)C12CCC2)c1csc(N)n1)c1cc(=O)c(O)cn1O (configuration not stated)", "Pseudomonas aeruginosa", "16 µg/mL"],
  ["CC(C)C(O/N=C(\\C(=O)N[C@@H]1C(=O)N(S(=O)(=O)O)[C@@H]1CCl)c1csc(N)n1)c1cc(=O)c(O)cn1O (some centres not stated)", "Pseudomonas aeruginosa", "8 µg/mL"],
  ["CC(C)C(O/N=C(\\C(=O)N[C@@H]1C(=O)N(S(=O)(=O)O)[C@@H]1CSc1nnnn1C)c1csc(N)n1)c1cc(=O)c(O)cn1O (some centres not stated)", "Pseudomonas aeruginosa", "> 64 µg/mL"],
  ["CC(C)C(O/N=C(\\C(=O)N[C@@H]1C(=O)N(S(=O)(=O)O)[C@@H]1CN1CCNCC1)c1csc(N)n1)c1cc(=O)c(O)cn1O (some centres not stated)", "Pseudomonas aeruginosa", "> 64 µg/mL"],
  ["C=CC1[C@H](NC(=O)/C(=N\\OC(c2cc(=O)c(O)cn2O)C(C)C)c2csc(N)n2)C(=O)N1S(=O)(=O)O (some centres not stated)", "Pseudomonas aeruginosa", "> 64 µg/mL"]
]}

Can you look up the measured MIC of Cc1csc(SC[C@@H]2[C@H](NC(=O)/C(=N\OC(c3cc(=O)c(O)cn3O)C(C)C)c3csc(N)n3)C(=O)N2S(=O)(=O)O)n1 (some centres not stated) for me?
> 64 µg/mL

Can you look up the measured MIC of CC(C)C(O/N=C(\C(=O)N[C@@H]1C(=O)N(S(=O)(=O)O)[C@@H]1COC(=O)c1ccc(O)c(O)c1Cl)c1csc(N)n1)c1cc(=O)c(O)cn1O (some centres not stated) for me?
> 64 µg/mL

###

# Tested on: Klebsiella pneumoniae
# ASSAY_PROCEDURE: Antibacterial activity against KPC-2 producing Klebsiella pneumoniae isolate 209632 after 18 hrs by CLSI broth microdilution method
# Format: functional
# COND: isolate 209632, 18 h
METRIC: MIC (µg/mL)

{"columns": ["MOLECULE", "TARGET_UNDER_TEST", "REPORTED_MEASUREMENT"],
 "data": [
  ["CC(C)C(O/N=C(\\C(=O)N[C@@H]1C(=O)N(S(=O)(=O)O)[C@@H]1CSc1nc(=O)c(O)nn1C)c1csc(N)n1)c1cc(=O)c(O)cn1O (stereo partly drawn)", "Klebsiella pneumoniae", 2]
]}

a = CC(C)C(O/N=C(\C(=O)N[C@@H]1C(=O)N(S(=O)(=O)O)[C@@H]1CN1CCNC1=O)c1csc(N)n1)c1cc(=O)c(O)cn1O (stereo partly drawn)
b = CC(C)C(O/N=C(\C(=O)N[C@@H]1C(=O)N(S(=O)(=O)O)[C@@H]1Cn1cc(COCc2cc(=O)c(O)cn2O)nn1)c1csc(N)n1)c1cc(=O)c(O)cn1O (stereo partly drawn)
Select one: a or b . Criterion: greater recorded MIC. Write down the label of the entry you select.
a
(a: 4 µg/mL, b: 2 µg/mL)

###

# Test system: Klebsiella pneumoniae
# ASSAY_PROCEDURE: Antibacterial activity against KPC-2 producing Klebsiella pneumoniae isolate 209632 after 18 hrs by CLSI broth microdilution method
# Type: functional
# COND: isolate 209632, 18 h
METRIC: MIC (µg/mL)

A = CC(=O)OC[C@@H]1[C@H](NC(=O)/C(=N\OC(c2cc(=O)c(O)cn2O)C(C)C)c2csc(N)n2)C(=O)N1S(=O)(=O)O (some centres not stated)
B = CC(C)C(O/N=C(\C(=O)N[C@@H]1C(=O)N(S(=O)(=O)O)[C@@H]1CCl)c1csc(N)n1)c1cc(=O)c(O)cn1O (some centres not stated)
Given the two records A and B , choose the one whose MIC value is lower. Write down the label of the entry you select.
A
(A: 2 µg/mL, B: 4 µg/mL)

P = Cc1csc(SC[C@@H]2[C@H](NC(=O)/C(=N\OC(c3cc(=O)c(O)cn3O)C(C)C)c3csc(N)n3)C(=O)N2S(=O)(=O)O)n1 (some centres not stated)
Q = CC(C)C(O/N=C(\C(=O)N[C@@H]1C(=O)N(S(=O)(=O)O)[C@@H]1COS(=O)(=O)O)c1csc(N)n1)c1cc(=O)c(O)cn1O (some centres not stated)
Select one: P or Q . Criterion: greater recorded MIC. Write down the label of the entry you select.
P
(P: 1 µg/mL, Q: 0.5 µg/mL)
